test system: SF-295 CNS; test: NCI tumour cell line growth inhibition, 48 h
Provide the reported TGI of each item.
Numbers only; they are read as µM.

# query: TGI of entry COc1ccc2c(c1)n([O-])c1cc(C#N)ccc1[n+]2=O
3.77

Field entry: O=C(C1OC1c1ccc(F)cc1)C12CC3CC(CC(C3)C1)C2 (stereo not given)
79.1

----------
tested on: TK-10 renal; assay: NCI tumour cell line growth inhibition, 48 h
endpointLabel: TGI

# query: TGI of entry N#CC1(Nc2ccc(Br)cc2)CCCC1
> 100 µM

Field entry: COC(=O)[C@]12CC[C@H]3CN(C(=O)OCc4ccccc4)[C@H]([C@H]31)[C@H](c1ccccc1)N2
> 100 µM

Field entry: COc1ccc2c(c1)n([O-])c1cc(C#N)ccc1[n+]2=O
10.8 µM

Field entry: CCOC(=O)C(COS(C)(=O)=O)(COS(C)(=O)=O)C(=O)OCC
> 100 µM

Field entry: COc1nc(N)c(N=O)c(OCc2ccccc2)n1
> 10 µM

Field entry: CC1CC[C@@]23CCC4(C)[C@@](C=CC5[C@@]6(C)CCC(=O)C(C)(C)C6CC[C@]54C)(OC2=O)[C@@H]3[C@H]1C (stereo partly specified)
56.5 µM

Field entry: CC1CC/C(=C\c2ccc(F)cc2)C2=C1C(c1ccc(F)cc1)n1c(s/c(=C/c3cccc(Br)c3)c1=O)=N2 (stereo unspecified)
> 100 µM

Field entry: O=C(Nc1ncc(Cc2ccccc2)s1)c1sc2ccccc2c1Cl
69.1 µM

Field entry: CCc1n[nH]c(=O)n1/N=C/c1ccc(/C=N/n2c(CC)n[nH]c2=O)cc1
> 100 µM

Field entry: OCCCC(O)(c1ccccc1)c1ccccc1
> 100 µM

Field entry: C=CC(=O)C#CC#CC/C=C\CCCCCCC
> 20.6 µM

----------
system: KM12 colon; experiment: NCI tumour cell line growth inhibition, 48 h; in the data active means GI50 below about 0.43 µM; inactive means the rest
Can you answer with just one of these options? T (active), F (inactive)

Fill in: this test's call for C=CCN1C(=O)c2cccc3c(N4CCOCC4)ccc(c23)C1=O is ___
T

Field entry: O=C(c1ccco1)c1nc2ccc(Cl)cc2[n+]([O-])c1C(F)(F)F
F

Field entry: CC1=C(C(=O)Nc2ccc(F)c(Cl)c2)C(c2cccc(Cl)c2)NC(=S)N1 (stereo not given)
F

Field entry: O=C(Cc1n[nH]c(=O)c2ccccc12)OCc1c(Cl)cccc1Cl
F

Field entry: COc1ccc(/C(C)=C(\c2ccc(Cl)cc2)c2ccc(OCCN3CCCCC3)cc2)cc1
F

Field entry: CC[C@H](C)[C@H](NC(=O)c1ccccn1)C(=O)N(C)[C@H](C[C@@H](OC(C)=O)c1nc(C(=O)N[C@@H](Cc2ccccc2)C[C@H](C)C(=O)OC)cs1)C(C)C
F

Field entry: O=C(c1ccc(Cl)c(Cl)c1)N1CCN(C(=O)c2ccc(Cl)c(Cl)c2)C1=S
F

Field entry: COc1ccc(-c2cn[nH]c2-c2cc(OC)c(OC)c(OC)c2)cc1OCc1ccccc1
F

Field entry: O=C1/C(=C/c2ccccc2)CN(C(=O)CCN2CCC(=NO)CC2)C/C1=C\c1ccccc1
F

Field entry: CC[N+](CC)=c1cc2oc3cc(N(C)C)ccc3nc-2cc1C
F

Field entry: Oc1c(Br)cc(Br)c2ccc(Cn3cc(-c4ccc(C(F)(F)F)cc4)nn3)nc12
F

Field entry: S=C(S)NCCNC(=S)S.[Cu+2]
F

Field entry: O=C(C[n+]1cccc2cc(Cl)ccc21)c1ccc2c(c1)CCCC2
F

Field entry: c1cc[n+](C2c3ccccc3C([n+]3ccccc3)c3ccccc32)cc1 (stereo not given)
F

Field entry: CCCC[C@H](NC(=O)[C@H]1CCCCN1C)C(=O)N(C)[C@H](C[C@@H](OC(C)=O)c1nc(C(=O)N[C@@H](Cc2ccccc2)C[C@H](C)C(=O)OCC)cs1)C(C)C
T

----------
Provide the reported TGI of each item.
test system: A549 NSCLC; experiment: NCI tumour cell line growth inhibition, 48 h

# query: TGI of entry CC(C)=CCNc1ncnc2c1c(C#N)cn2C1OC(CO)C(O)C1O (stereo unspecified)
> 100 µM

Field entry: Clc1ccc(COc2ccccc2/C=N/c2c(-c3ccco3)nc3ccccn23)c(Cl)c1
> 100 µM

Field entry: O=C(Cc1cc[n+]([O-])cc1)C(=O)Nc1cc(Cl)c(Cl)cc1Cl
> 100 µM

Field entry: NC(CCC(=O)Nc1ccc(O)cc1)C(=O)O (stereo unspecified)
> 100 µM

Field entry: Clc1ccc2c(N3CCN(c4ccnc(NC5CCCCC5)n4)CC3)ccnc2c1
10.8 µM

Field entry: O=S1c2ccccc2N=C(c2cccc3ccccc23)CC1c1cccc2ccccc12 (stereo unspecified)
36.7 µM

Field entry: O=C(CC(=O)n1nc(-c2ccccc2)c(N=Nc2ccccc2Cl)c1-c1ccccc1)Nc1ccc(Cl)cc1
> 79.8 µM

Field entry: NS(=O)(=O)c1ccc(NC(=S)/N=C/c2c(O)c3ccccc3oc2=O)cc1
> 100 µM

Field entry: COc1ccc2[nH]c3c(C)c4ccncc4c(C)c3c2c1
2.15 µM

Field entry: CCCCCC(=O)Nc1n[nH]nc1C#N
> 100 µM

Field entry: CN(CCCNCc1ccccn1)Cc1ccccc1O
> 100 µM

Field entry: COc1ccc2c(c1)n([O-])c1cc(C#N)ccc1[n+]2=O
10.9 µM

Field entry: CCOC(=O)C(COS(C)(=O)=O)(COS(C)(=O)=O)C(=O)OCC
> 100 µM

Field entry: CC1(C)OCC(C2OC3OC(C)(C)OC3C2N)O1 (stereo unspecified)
> 100 µM

Field entry: N#Cc1c(N)c2c(c(-c3ccccc3)c1-c1ccccc1)C(=O)N(N)C2=O
> 100 µM

Field entry: O=c1[nH]nc(-c2ccccc2)n1/N=C\CC/C=N\n1c(-c2ccccc2)n[nH]c1=O
> 100 µM

Field entry: CCCC[C@H](NC(=O)[C@H]1CCCCN1C)C(=O)N(C)[C@H](C[C@@H](OC(C)=O)c1nc(C(=O)N[C@@H](Cc2ccccc2)C[C@H](C)C(=O)OCC)cs1)C(C)C
> 33.3 µM

Field entry: Cc1ccc(C(=O)N/N=C(\N=Nc2cccc([N+](=O)[O-])c2)c2ccc(N(C)C)cc2)cc1
> 100 µM

Field entry: Nc1ncnc2c1ncc(=O)n2C1CC(O)C(CO)O1 (stereo unspecified)
> 100 µM

Field entry: CCOC(=O)CC[C@H](NC(=O)c1[nH]cnc1/N=N/N(C)C)C(=O)OCC
> 100 µM

Field entry: Cn1c(=O)c2c(nc3n(Cc4ccccc4)c(=O)c(Br)cn23)n(C)c1=O
> 100 µM

----------
tested on: UACC-62 melanoma; assay: NCI tumour cell line growth inhibition, 48 h
endpointLabel: TGI

# query: TGI of entry CCOC(=O)O/C(=C\c1ccc(OC)cc1)c1c(OC(=O)OCC)n(C(=O)OCC)c2ccccc12
> 100 µM

Field entry: O=C1CC[C@H](NC(=O)Cc2ccccc2)C(=O)N1
> 1250 µM

Field entry: COC(=O)c1oc([N+](=O)[O-])c(Cl)c1Cl
15.7 µM

Field entry: CC1CC/C(=C\c2ccc(F)cc2)C2=C1C(c1ccc(F)cc1)n1c(s/c(=C/c3cccc(Br)c3)c1=O)=N2 (stereo unspecified)
> 100 µM

Field entry: Nc1cccc2nnccc12
> 100 µM

Field entry: NC1=NC(=O)[C@H](Cc2c[nH]c3ccccc23)N1C(=O)OCc1ccccc1
> 100 µM

Field entry: NC(N)=NN=C(c1ccccc1)c1ccccc1
42.5 µM

Field entry: CC(=O)NNc1nc(C)c(C(=O)/C=C/C=C/c2ccccc2)s1
> 100 µM

Field entry: ClCc1ccccc1Cn1cnc2c(Cl)nc(Cl)nc21
0.865 µM

Field entry: CCCCCCCCCCC(=O)CC(=O)c1c(O)cccc1O
> 100 µM

Field entry: O=C(O)c1ccc(C(=O)Nc2cccc3ccccc23)c(C(=O)O)c1
> 100 µM

----------
tested on: OVCAR-4 ovarian; experiment: NCI tumour cell line growth inhibition, 48 h
endpointLabel: TGI

Return TGI measured with OVCAR-4 ovarian given this compound: CCCC[C@H](NC(=O)[C@H]1CCCCN1C)C(=O)N(C)[C@H](C[C@@H](OC(C)=O)c1nc(C(=O)N[C@@H](Cc2ccccc2)C[C@H](C)C(=O)OCC)cs1)C(C)C
> 33.3 µM

Field entry: CC1(C)Cc2c(cnn2-c2ccc(C(F)(F)F)cc2)-c2nc(-c3ccc(O)cc3)[nH]c21
29.2 µM

Field entry: Cc1cn(C2CC(OC3CCCCO3)C(CO)O2)c(=O)[nH]c1=O (stereo unspecified)
> 100 µM

Field entry: COc1cc2c(c(OC)c1OC)-c1ccc(SC)c(=O)cc1[C@@H](NCc1ccccc1[N+](=O)[O-])CC2
> 100 µM

Field entry: O=c1cc(-c2ccccc2)nc(-n2[nH]c3c(c2=O)CCCC3)[nH]1
61.9 µM

Field entry: C=C1CC(C)(COc2ccc3c(C)c(C)c(=O)oc3c2C)OC1=O (stereo unspecified)
19.3 µM

Field entry: OC1CCCN(C2(c3cccs3)CCCCC2)C1 (stereo unspecified)
> 100 µM

Field entry: N#Cc1c(N)c2c(c(-c3ccccc3)c1-c1ccccc1)C(=O)N(N)C2=O
> 100 µM

Field entry: CCOC(=O)C1OC(=O)CC1C1(C(=O)OCC)C=CC(=O)O1 (stereo unspecified)
> 100 µM

Field entry: CC(C)(C)c1ccc(O)c(CN(Cc2c(O)ccc3ccccc23)C2CCCCC2)c1
58.6 µM

Field entry: CC(=O)OCC1OC(N2C(=O)NC(=O)C3C=C4CCCCC4=CC32)C(OC(C)=O)C1OC(C)=O (stereo unspecified)
> 100 µM

Field entry: O=C(c1ccc(Cl)c(Cl)c1)N1CCN(C(=O)c2ccc(Cl)c(Cl)c2)C1=S
31.4 µM

Field entry: CCCCCC(=O)Nc1n[nH]nc1C#N
> 100 µM

Field entry: NC1=NC(=O)[C@H](Cc2c[nH]c3ccccc23)N1C(=O)OCc1ccccc1
> 100 µM

Field entry: C=CC(=O)C#CC#CC/C=C\CCCCCCC
> 20.6 µM

Field entry: Cc1cc(C(=O)NCCN(C)C)c2nc3ccccc3cc2c1
10.6 µM

Measured values drawn from PubChem BioAssay (NCI) for this set.
